- Tested on: human Factor XI mRNA
- Assay method text: Antisense inhibition in HepG2 cells by microwalk gapmers, 75 nM, lipofectin (Example 3)
- Format: cell-based
- Experimental parameters: HepG2 cells, 75 nM, oligonucleotides targeted to nucleobases 1275 to 1318 of SEQ ID NO: 1
In the oligonucleotide strings, read from the 5' end, every base follows the letter of its sugar. An asterisk marks phosphorothioate; unmarked linkages are phosphodiester. Other units and linkages are bracketed, terminal groups are in braces. A string of capitals states the bases alone. e = 2'-O-(2-methoxyethyl) (MOE); [5mC] = 5-methylcytosine; d = 2'-deoxy (DNA)
% inhibition of human Factor XI mRNA levels listing for selected substances.
Parameter: % inhibition of human Factor XI mRNA levels

Substance	Measured on	Endpoint value
417012 (antisense eG*eG*dA*d[5mC]*dG*dG*d[5mC]*dA*dT*dT*dG*dG*dT*dG*d[5mC]*eA*e[5mC]*eA*eG*eT) [compound 417012]	human Factor XI mRNA	72%
416935 (antisense eG*eG*eA*d[5mC]*dG*dG*d[5mC]*dA*dT*dT*dG*dG*dT*dG*d[5mC]*dA*d[5mC]*eA*eG*eT) [compound 416935]	human Factor XI mRNA	92%
416930 (antisense eG*e[5mC]*eA*dT*dT*dG*dG*dT*dG*d[5mC]*dA*d[5mC]*dA*dG*dT*dT*dT*e[5mC]*eT*eG) [compound 416930]	human Factor XI mRNA	87%
416940 (antisense eG*e[5mC]*eA*dG*d[5mC]*dG*dG*dA*d[5mC]*dG*dG*d[5mC]*dA*dT*dT*dG*dG*eT*eG*e[5mC]) [compound 416940]	human Factor XI mRNA	92%
416925 (antisense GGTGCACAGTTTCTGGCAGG; 3-14-3 chimeric gapmer, wing sugar chemistry not given here, further chemistry not given here) [compound 416925]	human Factor XI mRNA	98%
